Record form. Attribute: inhibition. Fill in for each entry.
assay: 384-well plate pilot, post-Golgi transport modulator project, inhibition of yeast transport mutant growth (AID 636); settings: absorbance 615 nm, about 18 h, active compounds read high
Active and inactive are the calls of the source. Rule as the data show it: active = inhibition above about 31%; inactive = the rest.

Data request: Reported inhibition for CCOC(=O)C(NC(=O)OC(C)C)(Nc1nccs1)C(F)(F)F (configuration not stated) : what is it?
Data returned: -4.29% (inactive)

Data request: Reported inhibition for "Cc1cc(C(F)F)n2nc(C(=O)Nc3ccc(S(=O)(=O)N4CCCCCC4)cc3)nc2n1" : what is it?
Data returned: -3.87% (inactive)

Data request: Reported inhibition for "Cc1ccc(F)cc1NC(=O)Cc1nn(C)c(=O)c2ccccc12" : what is it?
Data returned: -0.66% (inactive)

Data request: Reported inhibition for COc1ccc(-c2nc3c(c(=O)n(C)c(=O)n3C)n2CC2CC(c3ccccc3)=NO2)cc1OC (configuration not stated) : what is it?
Data returned: -6.76% (inactive)

Data request: Reported inhibition for "CCN(CCNC(=O)CS(=O)(=O)Cc1nc(-c2cccc(OC)c2)oc1C)c1ccccc1" : what is it?
Data returned: -6.67% (inactive)

Data request: Reported inhibition for "Cc1ccc(/C=c2\sc3nc(-c4ccccc4Br)nn3c2=O)o1" : what is it?
Data returned: -7.47% (inactive)

Data request: Reported inhibition for "CCOc1ccc(C(=O)N(CN2CCCC2=O)c2ccc(C)cc2)cc1" : what is it?
Data returned: -6% (inactive)

Data request: Reported inhibition for "Oc1cnc2ccccc2c1CN1CCOCC1" : what is it?
Data returned: -3.16% (inactive)

Data request: Reported inhibition for "Cc1c(C(=O)NCc2ccccc2)oc2c1C(=O)CCC2" : what is it?
Data returned: -4.87% (inactive)

Data request: Reported inhibition for "CCc1ccccc1N=C1SCC(=O)N1C" : what is it?
Data returned: -6.67% (inactive)

Data request: Reported inhibition for "CCC(=O)N(Cc1cc2c(C)ccc(C)c2[nH]c1=O)C1CCCCC1" : what is it?
Data returned: -6.71% (inactive)

Data request: Reported inhibition for Cc1ccc(Cl)cc1N1CCN(C(=O)C2CCCN(S(=O)(=O)c3cnc[nH]3)C2)CC1 (configuration not stated) : what is it?
Data returned: -2.93% (inactive)
